# Test system: HCT-116
# assay_notes: Inhibition of HCT116 human colon cancer cell proliferation
# Format: functional
For each of the compounds below, state its GI50.
Your answer should be a plain number; it is taken to be in µM.

Input: Field request: GI50 | item: C=CCNC1=C2CC(C)C[C@H](OC)C(O)C(C)/C=C(\C)[C@H](OC(N)=O)[C@@H](OC)/C=C\C=C(/C)C(=O)NC(=CC1=O)C2=O (single isomer, unassigned)
Output: 0.021

Input: Subsequent entry: Cc1[nH]nc(-c2cc(Cl)c(O)cc2O)c1-c1ccc2c(c1)OCCO2
Output: 4

Input: Consider next the compound CCc1cc(-c2[nH]nc(C)c2-c2ccc3c(c2)OCCO3)c(O)cc1O in the same way.
Output: 4.1
